Answer each item with its documented CLint (µL/min/mg protein) monkey.
Assay: In vitro metabolic stability in liver microsomes, monkey
Type: in vitro ADME
Please state the number and follow it with the unit.

>>> reported_measurement("NC(=O)c1ccc(OCC#Cc2cnc(N3CCC4(CC3)Cc3ccccc3[C@H]4N)c(CO)n2)cc1 [Compound A17]")
"5.0 µL/min/mg protein"
>>> reported_measurement("NC(=O)c1ccc(OCC#Cc2cnc(N3CCC4(CC3)Cc3ccccc3[C@H]4N)c(CO)n2)cc1F [Compound A50]")
"5.9 µL/min/mg protein"
>>> reported_measurement("N[C@@H]1c2ccccc2CC12CCN(c1ncc(C#CCOc3ccc(S(N)(=O)=O)cc3)nc1CO)CC2 [Compound A32]")
"10.1 µL/min/mg protein"
>>> reported_measurement("N[C@@H]1c2ccccc2CC12CCN(c1ncc(C#CCOc3cccc(C(F)(F)F)c3)nc1CO)CC2 [Compound A13]")
"2.6 µL/min/mg protein"
>>> reported_measurement("N[C@@H]1c2ccccc2CC12CCN(c1ncc(C#CCOc3ccc4c(c3)CNC4=O)nc1CO)CC2 [Compound A51]")
"26.2 µL/min/mg protein"

Could you tell me CLint (µL/min/mg protein) monkey for each of these compounds? They are listed below.
1. NC(=O)c1ccc(NCC#Cc2cnc(N3CCC4(CC3)Cc3ccccc3[C@H]4N)c(CO)n2)cc1 [Compound A48]
2. N[C@@H]1c2ccccc2CC12CCN(c1ncc(C#CCNc3ncco3)nc1CO)CC2 [Compound A60]
3. N[C@@H]1c2ccccc2CC12CCN(c1ncc(C#CCOc3ccc4c(c3)NC(=O)CC4)nc1CO)CC2 [Compound A22]
4. N[C@@H]1c2ccccc2CC12CCN(c1ncc(C#CCNC(=O)c3ccccc3)nc1CO)CC2 [Compound A45]

Response line:
8.6 µL/min/mg protein
16.9 µL/min/mg protein
21.0 µL/min/mg protein
3.2 µL/min/mg protein

----------
Test: In vitro metabolic stability in liver microsomes, monkey
Format: in vitro ADME
Settings: pH 7.3, read-out: CLint (µL/min/mg protein) monkey
measurement-type: log10 of microsomal CLint at 2 µM (log10 of the value in µL/min/mg)
Could you please treat all values as log10 of microsomal CLint at 2 µM in µL/min/mg?

Consider the reported log10 of microsomal CLint at 2 µM for these compounds:
>>> reported_measurement("N[C@@H]1c2ccccc2CC12CCN(c1ncc(C#CCOc3ccc4ccc(=O)[nH]c4c3)nc1CO)CC2")
1.00
>>> reported_measurement("NC(=O)Cn1cc(OCC#Cc2cnc(N3CCC4(CC3)Cc3ccccc3[C@H]4N)c(CO)n2)cn1")
0.65
>>> reported_measurement("N[C@@H]1c2ccccc2CC12CCN(c1ncc(C#CCOc3ccc(C(F)(F)F)cc3)nc1CO)CC2")
0.49
>>> reported_measurement("NC(=O)c1cccc(OCC#Cc2cnc(N3CCC4(CC3)Cc3ccccc3[C@H]4N)c(CO)n2)c1")
1.20
>>> reported_measurement("CN(CC#Cc1cnc(N2CCC3(CC2)Cc2ccccc2[C@H]3N)c(CO)n1)c1ccc(C(N)=O)cc1")
1.30

Give me log10 of microsomal CLint at 2 µM for each of these compounds, listed below.
1. NC(=O)c1ccc(OCC#Cc2cnc(N3CCC4(CC3)Cc3ccccc3[C@H]4N)c(CO)n2)cc1Cl
2. Nc1ncc(OCC#Cc2cnc(N3CCC4(CC3)Cc3ccccc3[C@H]4N)c(CO)n2)cn1
3. Nc1cc(OCC#Cc2cnc(N3CCC4(CC3)Cc3ccccc3[C@H]4N)c(CO)n2)ccn1
4. N#Cc1ccc(OCC#Cc2cnc(N3CCC4(CC3)Cc3ccccc3[C@H]4N)c(CO)n2)cc1
5. N[C@@H]1c2ccccc2CC12CCN(c1ncc(C#CCOc3ccc(C(O)C(F)(F)F)cc3)nc1CO)CC2 (some centres unmarked)
6. NC(=O)Cc1cccc(OCC#Cc2cnc(N3CCC4(CC3)Cc3ccccc3[C@H]4N)c(CO)n2)c1
7. NC(=O)c1cccc(NCC#Cc2cnc(N3CCC4(CC3)Cc3ccccc3[C@H]4N)c(CO)n2)c1

Response line:
[1.14, 1.33, 0.80, 0.86, 0.00, 1.20, 0.60]

Lab note: each compound below needs its log10 of microsomal CLint at 2 µM filled in.
1. Cn1nccc1NCC#Cc1cnc(N2CCC3(CC2)Cc2ccccc2[C@H]3N)c(CO)n1
2. NC(=O)c1ccc(OCC#Cc2cnc(N3CCC4(CC3)Cc3ccccc3[C@H]4N)cn2)cc1Cl

Response line:
1: 0.79; 2: 1.28
